biological target: Progesterone receptor (Homo sapiens) (UniProt P06401); assay: qHTS assay to identify small molecule agonists of the progesterone receptor (PR) signaling pathway (AID 1346784); details: PR-UAS-bla HEK293T, beta-lactamase FRET ratio, 16 h; series mostly up to 92.4 µM; also: nearly all actives have a fitted effect of over 30% in size
Sequence (P06401 whole entry, looked up): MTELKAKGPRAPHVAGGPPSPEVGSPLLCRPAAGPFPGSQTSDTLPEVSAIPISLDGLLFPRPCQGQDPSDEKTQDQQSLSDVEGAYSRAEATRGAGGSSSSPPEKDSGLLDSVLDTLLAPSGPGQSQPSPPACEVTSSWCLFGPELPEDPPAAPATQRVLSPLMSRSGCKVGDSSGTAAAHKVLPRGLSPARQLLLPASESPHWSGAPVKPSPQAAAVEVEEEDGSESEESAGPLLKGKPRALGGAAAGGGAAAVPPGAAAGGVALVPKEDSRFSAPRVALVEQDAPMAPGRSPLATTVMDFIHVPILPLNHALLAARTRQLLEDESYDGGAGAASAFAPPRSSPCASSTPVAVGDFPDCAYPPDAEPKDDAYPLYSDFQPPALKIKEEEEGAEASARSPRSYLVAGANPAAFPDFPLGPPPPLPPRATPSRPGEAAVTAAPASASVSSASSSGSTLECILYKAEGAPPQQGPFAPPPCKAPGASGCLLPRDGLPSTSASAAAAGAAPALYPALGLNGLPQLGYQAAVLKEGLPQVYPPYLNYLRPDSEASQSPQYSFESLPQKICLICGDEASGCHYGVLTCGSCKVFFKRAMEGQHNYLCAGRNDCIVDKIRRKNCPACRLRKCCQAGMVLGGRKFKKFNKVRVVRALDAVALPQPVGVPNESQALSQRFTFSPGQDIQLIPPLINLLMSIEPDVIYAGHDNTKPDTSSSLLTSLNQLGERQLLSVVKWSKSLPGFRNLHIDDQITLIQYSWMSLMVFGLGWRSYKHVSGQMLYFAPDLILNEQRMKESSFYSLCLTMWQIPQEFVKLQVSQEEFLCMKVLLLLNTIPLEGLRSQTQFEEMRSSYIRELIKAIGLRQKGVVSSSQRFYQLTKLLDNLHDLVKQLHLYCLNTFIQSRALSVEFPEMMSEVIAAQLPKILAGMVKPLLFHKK
Results filed as inconclusive are left out. Active and inactive are the calls of the source. Calls follow the shape of the full dose curve.
Assign a class; possible classes are t for active, f for inactive

O=C(O)CCN(C1(C(=O)NO)CCCC1)S(=O)(=O)c1ccc(Oc2ccc(F)cc2)cc1    f
CCCCCc1ccc(Cl)cc1    f
C=CCCC(=O)/C=C/C1C(C)=CCCC1(C)C (stereo not given)    f
C=Cc1ccccc1C=C    f
CC(C)(C)C1CCC(=O)CC1    f
O=c1oc2cc(O)ccc2c2oc3cc(O)ccc3c12    f
Clc1sc(Cl)c(Cl)c1Cl    f
CCC(CC)(CC(=O)Nc1cccc(/C=C/c2nc(C3CCC3)cs2)c1)C(=O)O    f

Given CCC(COC(=O)CCS)(COC(=O)CCS)COC(=O)CCS , state the outcome it received in this test.
f

Given O=[N+]([O-])c1ccc(F)c(Cl)c1 , state the outcome it received in this test.
t

Given Cc1cccc2cccnc12 , state the outcome it received in this test.
f

Given Nc1ccc(NCCO)c([N+](=O)[O-])c1 , state the outcome it received in this test.
f

Given C/C=C/C=C/COC(=O)C(C)C , state the outcome it received in this test.
f

Given COC1=C(OC)C(=O)C(CCCCCCCCCCO)=C(C)C1=O , state the outcome it received in this test.
f

Given CCCCCCCCCCCCOC(=O)c1ccc(O)cc1 , state the outcome it received in this test.
f

Reference source for all entries: PubChem BioAssay (Tox21)
